# Assayed system: T1, monomeric human c-fms (residues 1-512)-pHis (human, UniProt P07333 20-512)
# T1 construct: Construct stated as residues 1-512; signal stated as amino acids 1-19 and left out; also called human c-fms (1-512).pHIS; monomeric c-fms
# T1 sequence (P07333 20-512): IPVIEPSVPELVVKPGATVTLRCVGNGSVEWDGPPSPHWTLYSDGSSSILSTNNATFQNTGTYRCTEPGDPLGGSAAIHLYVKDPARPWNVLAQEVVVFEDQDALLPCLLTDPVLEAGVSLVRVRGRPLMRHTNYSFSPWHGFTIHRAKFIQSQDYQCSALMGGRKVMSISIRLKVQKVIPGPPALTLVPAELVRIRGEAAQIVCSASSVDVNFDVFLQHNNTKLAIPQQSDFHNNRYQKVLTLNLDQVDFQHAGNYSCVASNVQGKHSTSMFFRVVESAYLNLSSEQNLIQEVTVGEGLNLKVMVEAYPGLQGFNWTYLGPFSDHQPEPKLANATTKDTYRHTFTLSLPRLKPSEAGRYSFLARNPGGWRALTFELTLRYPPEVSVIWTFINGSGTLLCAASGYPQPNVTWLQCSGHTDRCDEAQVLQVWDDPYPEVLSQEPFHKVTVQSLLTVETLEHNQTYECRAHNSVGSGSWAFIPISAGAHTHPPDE
# Procedure details: Biacore, low resolution; hybridoma mAb captured on anti-human IgG, monomeric c-fms-pHis analyte at 125 nM
Quick rule for you: koff under 0.0008 s⁻¹ gets Fulfilled, anything else gets Not fulfilled.

INSERT INTO assay_data (binder, discrete_label) VALUES
  ('anti-c-fms hybridoma antibody 1.90 (antibody, IgG1, V domains shown, Hybridoma IgG1 (cohort 1); also called 1.90.2) VH: QVQLVESGGGVVQPGRSLRLSCAASGFTFSSYGMHWVRQAPGKGLEWVAVIWYDGSNKYYADSVKGRFTISRDNSKNTLYLQMNSLRAEDTAVYYCASSSSNFYDMDVWGQGTTVTVSS VL: DIQMTQSPSSLSASVGDRVTITCQASQDISNYLNWYQQKPGKAPKLLIYDASNLETGVPSRFSGSGSGTDFTFTISSLQPEDIATYYCQRYDDLPITFGQGTRLEIK', 'Not fulfilled'),
  ('anti-c-fms hybridoma antibody 2.369 (antibody, IgG2, V domains shown, Hybridoma IgG2 (cohort 2); also called 2.369.3) VH: QVQLVQSGAEVKKPGASVKVSCKVSGYTLTELSMHWVRQAPGKGLEWMGGFDPEDGETIYAQKFQGRVTMTEDTSTDTAYMELSSLRSEDTAVYYCATRAGTTLAYYYYAMDVWGQGTTVTVSS VL: DIQMTQSPSSLSASVGDRVTITCRASQSISRYLNWYQQKPGKAPNLLIHAASSLQSGVPSRFSGSGSGTDFTLTISSLQPEDFATYYCQQSYITPPSFGQGTKLEIK', 'Not fulfilled'),
  ('anti-c-fms hybridoma antibody 1.64 (antibody, IgG1, V domains shown, Hybridoma IgG1 (cohort 1); also called 1.64.1; 1.64.2) VH: EVQLVESGGGLVQPGGSLRLSCAASGFTFSSYDMHWVRQATGKGLEWVSGIGTAGDTYYPGSVKGRFNISRENAKNSLYLQMNSLRAGDTAVYYCAREGSWYGFDYWGQGTLVTVSS VL: EIVLTQSPGTLSLSPGERATLSCRASQSVSSGYLAYLAWYQQKPGQAPRLLIYGASSTATGIPDRFSGSGSGTDFTLTISRLEPEDFAVYYCQQYGSSPITFGQGTRLEIK', 'Fulfilled'),
  ('anti-c-fms hybridoma antibody 1.134 (antibody, IgG1, V domains shown, Hybridoma IgG1 (cohort 1); also called 1.134.1) VH: QVQLVESGGGVVQPGRSLRLSCAASGFTFSSYGMHWVRQAPGKGLEWVAVIWYDGSNKYYADSVKGRFTISRDNSKNTLYLQMNSLRAEDTAVYYCASSSWSYYGMDVWGQGTTVTVSS VL: DIQMTQSPSSLSASVGDRVTITCQASQDINNYLNWYQQKPGKAPKLLIYDASNLEIGVPSRFSGSGSGTDFIFTISSLQPEDIATYYCQQYDNFPFTFGGGTKVEIK', 'Fulfilled'),
  ('anti-c-fms hybridoma antibody 1.13 (antibody, V domains shown, Hybridoma IgG1 (cohort 1)) VH: QVQLQESGPGLVKPSETLSLTCTVSGGSVSSGGYYWSWIRQPPGKGLEWIGYIYYSGSTNYNPSLKSRVTISVDTSKNQFSLKLSSVTAADTAVYYCAAGIAATGTLFDCWGQGTLVTVSS VL: DIQMTQSPSSLSASVGDRVTITCQASQDISNYLNWYQQKPGKAPKLLIYDASNLETGVPSRFSGSGSGTDFTFIISSLQPEDIATYYCQQFDNLPPTFGGGTKVESK', 'Fulfilled');
